# MIC per record follows
Test system: Staphylococcus aureus
Experiment: Antibacterial activity against Staphylococcus aureus 15B196 by microbroth dilution method
Assay type: functional

item smiles	MIC (µg/mL)
CC[C@H]1OC(=O)[C@H](C)C(=O)[C@H](C)[C@@H](O[C@@H]2O[C@H](C)C[C@H](N(C)C)[C@H]2O)[C@](C)(OC)C[C@@H](C)C(=O)[C@H](C)[C@H]2N(CCCC#Cc3ccc4c(=O)c(C(=O)O)cn(C5CC5)c4c3)C(=O)O[C@]12C	256
CC[C@H]1OC(=O)[C@H](C)C(=O)[C@H](C)[C@@H](O[C@@H]2O[C@H](C)C[C@H](N(C)C)[C@H]2O)[C@](C)(OC)C[C@@H](C)C(=O)[C@H](C)[C@H]2N(CCC#Cc3ccc4c(c3)c(=O)c(C(N)=O)cn4C3CC3)C(=O)O[C@]12C	32
CC[C@H]1OC(=O)[C@H](C)C(=O)[C@H](C)[C@@H](O[C@@H]2O[C@H](C)C[C@H](N(C)C)[C@H]2O)[C@](C)(OC)C[C@@H](C)C(=O)[C@H](C)[C@H]2N(CCCCCCC#Cc3ccc4c(c3)c(=O)c(C(=O)O)cn4C3CC3)C(=O)O[C@]12C	128
CC[C@H]1OC(=O)[C@H](C)C(=O)[C@H](C)[C@@H](O[C@@H]2O[C@H](C)C[C@H](N(C)C)[C@H]2O)[C@](C)(OC)C[C@@H](C)C(=O)[C@H](C)[C@H]2N(CCN3CCN(c4cc5c(cc4F)c(=O)c(C(=O)O)cn5C4CC4)CC3)C(=O)O[C@]12C	256

###

# CLint scaled at 1 µM per record follows
Experiment: Intrinsic clearance in human liver microsomes at 1 uM by LC-MS/MS analysis
Type: ADME, Microsome
Settings: read-out: CLH

compound	CLint scaled at 1 µM
CC[C@H]1OC(=O)[C@H](C)C(=O)[C@H](C)[C@@H](O[C@@H]2O[C@H](C)C[C@H](N(C)C)[C@H]2O)[C@](C)(OC)C[C@@H](C)C(=O)[C@H](C)[C@H]2N(CCCCn3cnc(-c4cccnc4)c3)C(=O)O[C@]12C [TELITHROMYCIN]	38.4 mL/min/kg
CCOc1ccc2ccc(=O)oc2c1	70.2 mL/min/kg
CC[C@H]1OC(=O)[C@H](C)C(=O)[C@H](C)[C@@H](O[C@@H]2O[C@H](C)C[C@H](N(C)C)[C@H]2O)[C@](C)(OC)C[C@@H](C)C(=O)[C@H](C)[C@H]2N(CCCCc3ccc4c(=O)c(C(=O)O)cn(C5CC5)c4c3)C(=O)O[C@]12C	31.9 mL/min/kg
CC[C@H]1OC(=O)[C@H](C)C(=O)[C@H](C)[C@@H](O[C@@H]2O[C@H](C)C[C@H](N(C)C)[C@H]2O)[C@](C)(OC)C[C@@H](C)C(=O)[C@H](C)[C@H]2N(CCCN3CCN(c4cc5c(cc4F)c(=O)c(C(=O)O)cn5C4CC4)CC3)C(=O)O[C@]12C	11.3 mL/min/kg

###

Experiment: Stability in rat liver microsomes assessed as unchanged drug level at 1 uM after 60 mins by LC-MS/MS analysis
Type: ADME, Microsome
Settings: read-out: Stability

item smiles	units of measure	remaining at 1 h, 1 µM
CCOc1ccc2ccc(=O)oc2c1	%	8.69
CC[C@H]1OC(=O)[C@H](C)C(=O)[C@H](C)[C@@H](O[C@@H]2O[C@H](C)C[C@H](N(C)C)[C@H]2O)[C@](C)(OC)C[C@@H](C)C(=O)[C@H](C)[C@H]2N(CCCN3CCN(c4cc5c(cc4F)c(=O)c(C(=O)O)cn5C4CC4)CC3)C(=O)O[C@]12C	%	65
CC[C@H]1OC(=O)[C@H](C)C(=O)[C@H](C)[C@@H](O[C@@H]2O[C@H](C)C[C@H](N(C)C)[C@H]2O)[C@](C)(OC)C[C@@H](C)C(=O)[C@H](C)[C@H]2N(CCCCc3ccc4c(=O)c(C(=O)O)cn(C5CC5)c4c3)C(=O)O[C@]12C	%	35.1
CC[C@H]1OC(=O)[C@H](C)C(=O)[C@H](C)[C@@H](O[C@@H]2O[C@H](C)C[C@H](N(C)C)[C@H]2O)[C@](C)(OC)C[C@@H](C)C(=O)[C@H](C)[C@H]2N(CCCCn3cnc(-c4cccnc4)c3)C(=O)O[C@]12C	%	26.3
